Item-by-item account of Tumor volume
Test system: HCT116 colon cancer cells
Assay: In vivo anti-cancer activity by oral administration, HCT116 tumor in nude mice
Parameters: species or system BALB/c nu/nu mice
Settings: day 3, 20 mg/kg oral once a day
Please state the figure in mm^3; there is no need to write the unit.

Worked cases, answers included:
In: Jot down Tumor volume (HCT116 colon cancer cells) of Cc1cc(C23CC4CC(CC(C4)C2)C3)ccc1OCC(=O)N1CCOCC1 [Compound I-6] .
Out: 25.5

In: Jot down Tumor volume (HCT116 colon cancer cells) of CN(C)CCNC(=O)C(C)(C)Oc1ccc(C23CC4CC(CC(C4)C2)C3)cc1 [Compound I-24] .
Out: 38.1

In: Jot down Tumor volume (HCT116 colon cancer cells) of CN1CCN(C(=O)COc2ccc(C34CC5CC(CC(C5)C3)C4)cc2)CC1 [Compound I-3] .
Out: 31.6

Shift focus to the following entry.
In: Jot down Tumor volume (HCT116 colon cancer cells) of CN1CCN(C(=O)CCOc2ccc(C34CC5CC(CC(C5)C3)C4)cc2)CC1 [Compound I-8] .
Out: 24.6

----------
Assay: Body weight change and side effects during 14 days of oral treatment in nude mice
Assay type: in vivo, BALB/c nu/nu mice
Details: day 7, 20 mg/kg oral once a day
Property: Body weight change (%)
Please state the figure in %; there is no need to write the unit.

In: Answer with the recorded Body weight change of CN1CCN(C(=O)COc2ccc(C34CC5CC(CC(C5)C3)C4)cc2)CC1 [Compound I-3] only.
Out: 105.1

----------
Assay: Body weight change and side effects during 14 days of oral treatment in nude mice
Type: in vivo, BALB/c nu/nu mice
Conditions: day 5, 20 mg/kg oral once a day
Property: Body weight change
Give your result as the value with the unit written after it.

In: Answer with the recorded Body weight change of CN1CCN(C(=O)CCOc2ccc(C34CC5CC(CC(C5)C3)C4)cc2)CC1 only.
Out: 103.4 ± 2.8%

In: Answer with the recorded Body weight change of CN(C)CCNC(=O)C(C)(C)Oc1ccc(C23CC4CC(CC(C4)C2)C3)cc1 only.
Out: 104.0 ± 3.6%

In: Answer with the recorded Body weight change of Cc1cc(C23CC4CC(CC(C4)C2)C3)ccc1OCC(=O)N1CCOCC1 only.
Out: 103.6 ± 2.6%

Further cases:
In: Answer with the recorded Body weight change of C[N+]1(C)CCN(C(=O)CCCOc2ccc(C34CC5CC(CC(C5)C3)C4)cc2)CC1.[I-] only.
Out: 104.1 ± 4.6%

In: Answer with the recorded Body weight change of Cc1cc(C23CC4CC(CC(C4)C2)C3)ccc1OCC(=O)N1CC[N+](C)(C)CC1.[I-] only.
Out: 104.2 ± 2.8%

----------
Test system: HIF-1α-mediated HRE transcriptional activity
Experiment: Assay for inhibition of HIF-1α-mediated transcriptional activity (HRE reporter assay)
Assay type: cell-based, human
Conditions: Homo sapiens, HCT-116, HCT116 cells, 12 hours under hypoxia (1% O2), read-out: Inhibitory activity against HIF-1α (10 μM)
Item-by-item account of inhibition at 10 µM

Worked cases, answers included:
In: Answer with the recorded inhibition at 10 µM of CN1CCN(C(=O)CCOc2ccc(C34CC5CC(CC(C5)C3)C4)cc2)CC1 only.
Out: 51 to 75%

In: Answer with the recorded inhibition at 10 µM of Cc1cc(C23CC4CC(CC(C4)C2)C3)ccc1OCCC(=O)NCC[N+](C)(C)C only.
Out: 26 to 50%

Further cases:
In: Answer with the recorded inhibition at 10 µM of Cc1cc(C23CC4CC(CC(C4)C2)C3)ccc1OCC(=O)N1CCOCC1 only.
Out: 76 to 100%

In: Answer with the recorded inhibition at 10 µM of CN(C)CCNC(=O)CCOc1ccc(C23CC4CC(CC(C4)C2)C3)cc1 only.
Out: 26 to 50%

In: Answer with the recorded inhibition at 10 µM of O=C(COc1ccc(C23CC4CC(CC(C4)C2)C3)cc1)N1CCN(CCO)CC1 only.
Out: 26 to 50%

In: Answer with the recorded inhibition at 10 µM of C[C@H]1CNCCN1C(=O)COc1ccc(C23CC4CC(CC(C4)C2)C3)cc1 only.
Out: 76 to 100%

In: Answer with the recorded inhibition at 10 µM of CN1CCN(C(=O)COc2ccc(C34CC5CC(CC(C5)C3)C4)cc2F)CC1 only.
Out: 51 to 75%

In: Answer with the recorded inhibition at 10 µM of O=C(COc1ccc(C23CC4CC(CC(C4)C2)C3)cc1)NC1CC1 only.
Out: 76 to 100%

In: Answer with the recorded inhibition at 10 µM of O=C(COc1ccc(C23CC4CC(CC(C4)C2)C3)cc1)NC12CC3CC(CC(C3)C1)C2 only.
Out: 1 to 25%
